# Tested on: AMPK
# Test protocol: Evaluation on effect of activating AMPK (phosphorylation of ACC Ser79, Cell ELISA in MDA-MB-453 cells)
# Assay type: cell-based
# Assay conditions: Homo sapiens, 2 hours, concentration as freebase
Readout kind: pEC50
Give bare numbers, as −log10 of the molar value.

Example entries begin here.
COc1cnc(CN2CCC(c3ccc4c(c3)cc(C(=O)N3CCN(Cc5ccc(C#N)cc5)CC3)n4C)CC2)cn1 [Compound D1] : 8.48
CCOc1cnc(CN2CCC(c3ccc4cc(C(=O)N5CCN(Cc6ccc(C#N)cc6)CC5)n(C)c4c3)CC2)cn1 : 8.74

Proceeding to the next molecule to report its pEC50.
GET /value?item= COc1cnc(CN2CCC(c3ccc4[nH]c(C(=O)N5CCN(Cc6ccc(C(F)(F)F)cc6)CC5)nc4c3)CC2)cn1 &field=pEC50 returns 8.08
